Tested on: HL-60
Method notes: NCI tumour cell line growth inhibition, 48 h
Calls of active or inactive are those of the source. No stated cut-off is given here; in the data, active = GI50 up to about 1.1 µM and inactive = higher.
Classes to choose from: active, inactive

Input: Test call, this molecule: O=C1Cc2c([nH]c3ccc(C(=O)O)cc23)-c2ccccc2N1
Output: inactive

Input: Test call, this molecule: Clc1cc2c(c(CSC3=NCN(CC4CC4)CN3)c1)OCOC2
Output: inactive

Input: Test call, this molecule: COc1ccc2nccc(NCCCN3CCN(CCCNc4ccnc5ccc(OC)cc45)CC3)c2c1
Output: active

Input: Test call, this molecule: CC(C)/C=N\N1C(N)=C(C#N)C(C#N)(C#N)C1C(C)C (stereo unspecified)
Output: inactive

Input: Test call, this molecule: COC1CC(OC)C(O)C(CO)O1 (stereo unspecified)
Output: inactive
